Origin of measurements: patent US20260085066A1

- measurement.target: WT LRRK2 (Homo sapiens)
- Construct: endogenous in cells; host or cells: HEK293 cells with HiBit knocked into the endogenous LRRK2 gene, stably expressing firefly luciferase
- assay.protocol: LRRK2 degradation HiBit assay in HEK293 cells (Nano-Glo Dual-Luciferase)
- Assay type: cell-based
- experimental.context: HiBit-tagged LRRK2 in HEK293 cells, 24 hours compound treatment
value.kind: Dmax

Please review the entries below; each comes with its answer.
CC1(Oc2ccc3[nH]nc(-c4cc(N5CCN(CCC6(F)CCN(CC7CCN(c8ccc9c(c8F)CN(C8CCC(=O)NC8=O)C9=O)CC7)CC6)CC5)ncn4)c3c2)CC1 (centres unmarked) ... 50 to 70%
COc1c(N2CCC(O[C@H]3CC[C@H](CN4CCN(c5cc(-c6[nH]nc7ccc(CC8(C)CC8)cc67)ncn5)CC4)CC3)CC2)ccc2c1CN(C1CCC(=O)NC1=O)C2=O (some centres unmarked) ... 50 to 70%

Problem: Query (compound): CC1(Cc2ccc3[nH]nc(-c4cc(N5CCC(CN6CCN(CC7CCN(c8ccc9c(c8F)CN(C8CCC(=O)NC8=O)C9=O)CC7)C(C)(C)C6)CC5)ncn4)c3c2)CC1 (centres unmarked) ; field requested: Dmax
Result: 50 to 70%

Problem: Query (compound): CC1(Oc2ccc3[nH]nc(-c4cc(N5CCC(C[C@H]6CC[C@@H](OC7CCN(c8ccc9c(c8F)CN(C8CCC(=O)NC8=O)C9=O)CC7)CC6)CC5)ncn4)c3c2)CC1 (some centres unmarked) ; field requested: Dmax
Result: ≥ 70%

Problem: Query (compound): CC1(Oc2ccc3[nH]nc(-c4cc(N5CCN(C[C@H]6CN(CC7CCN(c8ccc9c(c8F)CN(C8CCC(=O)NC8=O)C9=O)CC7)CCO6)CC5)ncn4)c3c2)CC1 (some centres unmarked) ; field requested: Dmax
Result: 50 to 70%

====

- measurement.target: WT LRRK2 (Homo sapiens, UniProt Q5S007)
- Construct: endogenous in cells; host or cells: HEK293 cells with HiBit knocked into the endogenous LRRK2 gene, stably expressing firefly luciferase
- Sequence (Q5S007 whole entry): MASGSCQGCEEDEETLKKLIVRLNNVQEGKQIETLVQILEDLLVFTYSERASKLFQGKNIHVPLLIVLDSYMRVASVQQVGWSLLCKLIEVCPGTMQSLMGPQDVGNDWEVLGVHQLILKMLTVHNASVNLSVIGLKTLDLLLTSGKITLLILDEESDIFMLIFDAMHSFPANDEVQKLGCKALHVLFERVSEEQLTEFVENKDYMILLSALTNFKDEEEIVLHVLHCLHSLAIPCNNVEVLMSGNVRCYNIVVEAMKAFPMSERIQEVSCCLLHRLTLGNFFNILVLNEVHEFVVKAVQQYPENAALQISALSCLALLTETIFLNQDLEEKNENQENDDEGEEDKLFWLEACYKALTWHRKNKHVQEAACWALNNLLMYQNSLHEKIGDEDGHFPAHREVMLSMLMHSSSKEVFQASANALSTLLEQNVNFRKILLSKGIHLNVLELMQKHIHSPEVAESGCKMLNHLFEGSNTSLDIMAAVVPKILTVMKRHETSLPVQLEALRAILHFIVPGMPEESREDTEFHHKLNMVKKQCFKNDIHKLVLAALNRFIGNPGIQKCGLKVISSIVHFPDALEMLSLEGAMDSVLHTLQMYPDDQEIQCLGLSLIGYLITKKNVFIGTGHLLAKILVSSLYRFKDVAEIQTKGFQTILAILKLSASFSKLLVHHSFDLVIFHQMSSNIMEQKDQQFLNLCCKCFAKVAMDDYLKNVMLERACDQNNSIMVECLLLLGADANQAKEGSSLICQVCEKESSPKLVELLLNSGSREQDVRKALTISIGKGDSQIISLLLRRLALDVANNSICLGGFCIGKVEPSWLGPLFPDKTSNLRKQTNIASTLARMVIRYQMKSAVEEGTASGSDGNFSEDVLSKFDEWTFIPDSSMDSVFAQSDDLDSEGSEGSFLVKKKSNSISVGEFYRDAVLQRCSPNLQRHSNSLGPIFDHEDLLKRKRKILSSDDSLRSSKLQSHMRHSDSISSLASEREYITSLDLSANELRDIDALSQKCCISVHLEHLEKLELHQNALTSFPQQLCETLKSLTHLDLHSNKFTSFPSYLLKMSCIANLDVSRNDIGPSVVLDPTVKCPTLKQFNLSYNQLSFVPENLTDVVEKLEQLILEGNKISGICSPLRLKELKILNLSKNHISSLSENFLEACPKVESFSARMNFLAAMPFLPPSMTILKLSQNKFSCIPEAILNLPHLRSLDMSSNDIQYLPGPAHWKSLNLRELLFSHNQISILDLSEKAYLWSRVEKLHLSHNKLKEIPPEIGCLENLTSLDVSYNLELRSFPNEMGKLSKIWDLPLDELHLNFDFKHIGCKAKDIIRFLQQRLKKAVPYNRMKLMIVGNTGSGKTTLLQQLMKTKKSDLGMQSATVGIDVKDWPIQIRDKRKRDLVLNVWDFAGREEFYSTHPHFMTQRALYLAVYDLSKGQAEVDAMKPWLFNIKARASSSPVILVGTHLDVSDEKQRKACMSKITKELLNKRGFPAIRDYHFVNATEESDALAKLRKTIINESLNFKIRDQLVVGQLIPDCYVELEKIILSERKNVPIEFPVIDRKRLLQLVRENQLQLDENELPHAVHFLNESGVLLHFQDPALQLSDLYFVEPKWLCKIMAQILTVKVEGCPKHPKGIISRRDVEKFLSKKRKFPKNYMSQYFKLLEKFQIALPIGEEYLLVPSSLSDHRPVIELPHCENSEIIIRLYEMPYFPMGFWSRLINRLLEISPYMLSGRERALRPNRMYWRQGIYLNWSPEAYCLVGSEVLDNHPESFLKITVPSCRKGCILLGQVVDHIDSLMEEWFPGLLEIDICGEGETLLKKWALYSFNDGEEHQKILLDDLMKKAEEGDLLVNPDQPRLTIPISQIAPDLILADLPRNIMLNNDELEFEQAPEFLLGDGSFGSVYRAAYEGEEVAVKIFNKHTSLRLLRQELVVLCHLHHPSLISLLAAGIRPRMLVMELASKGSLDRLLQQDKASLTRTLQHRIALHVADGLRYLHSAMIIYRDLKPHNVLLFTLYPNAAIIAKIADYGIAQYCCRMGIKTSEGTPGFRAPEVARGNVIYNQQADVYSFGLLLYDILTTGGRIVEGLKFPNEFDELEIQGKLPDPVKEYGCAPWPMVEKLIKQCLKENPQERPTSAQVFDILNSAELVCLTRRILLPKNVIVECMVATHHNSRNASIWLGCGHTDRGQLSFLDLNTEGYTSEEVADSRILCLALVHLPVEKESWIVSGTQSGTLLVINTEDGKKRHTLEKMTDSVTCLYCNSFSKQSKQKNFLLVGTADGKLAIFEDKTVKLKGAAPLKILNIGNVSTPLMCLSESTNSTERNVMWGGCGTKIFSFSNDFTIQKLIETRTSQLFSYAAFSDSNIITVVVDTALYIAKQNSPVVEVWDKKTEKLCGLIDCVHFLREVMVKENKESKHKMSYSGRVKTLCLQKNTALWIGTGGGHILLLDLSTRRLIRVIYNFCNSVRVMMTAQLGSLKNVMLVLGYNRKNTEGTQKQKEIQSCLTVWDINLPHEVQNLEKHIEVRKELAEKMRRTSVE
- assay.protocol: LRRK2 degradation HiBit assay in HEK293 cells (Nano-Glo Dual-Luciferase)
- Type: cell-based
- experimental.context: HiBit-tagged LRRK2 in HEK293 cells, 24 hours compound treatment
Measured Dmax accompanies every entry in the list below.

CC1(Oc2ccc3[nH]nc(-c4cc(N5CCN(C[C@H]6CC[C@H](OC7CCN(c8ccc9c(c8)CN(C8CCC(=O)NC8=O)C9=O)CC7)CC6)CC5)ncn4)c3c2)CC1 (stereo partly shown) ... 50 to 70%
CC1(Oc2ccc3[nH]nc(-c4cc(N5CCC(CN6CC[C@@H](CN7CCN(c8ccc9c(c8F)CN(C8CCC(=O)NC8=O)C9=O)CC7)[C@@H](F)C6)CC5)ncn4)c3c2)CC1 (stereo partly shown) ... 50 to 70%
Cc1cc(N2CCC(O[C@H]3CC[C@@H](CN4CCN(c5cc(-c6n[nH]c7ccc(OC8(C)CC8)cc67)ncn5)CC4)CC3)CC2)c(F)c2c1C(=O)N(C1CCC(=O)NC1=O)C2 (stereo partly shown) ... < 50%
CC1(Oc2ccc3[nH]nc(-c4cc(N5CCO[C@@H](CN6CCN(CC7CCN(c8ccc9c(c8F)CN(C8CCC(=O)NC8=O)C9=O)CC7)CC6(C)C)C5)cnn4)c3c2)CC1 (stereo partly shown) ... 50 to 70%

Problem: Query (compound): CC1(Cc2ccc3[nH]nc(-c4cc(N5CCC(CN6CCN(CC7CCN(c8ccc9c(c8F)CN(C8CCC(=O)NC8=O)C9=O)CC7)CC6(C)C)CC5)ncn4)c3c2)CC1 (stereo not shown) ; field requested: Dmax
Result: < 50%

Problem: Query (compound): COc1c(N2CCC(O[C@H]3C[C@H](N4CCC5(CC4)CN(c4cc(-c6[nH]nc7ccc(OC8(C)CC8)cc67)ncn4)C5)C3)CC2)ccc2c1CN(C1CCC(=O)NC1=O)C2=O (stereo partly shown) ; field requested: Dmax
Result: 50 to 70%

Problem: Query (compound): CC1(Oc2ccc3[nH]nc(-c4cc(N5CCN(C[C@@H]6CN(CCC7CCN(c8ccc9c(c8F)CN(C8CCC(=O)NC8=O)C9=O)CC7)CCO6)CC5)ncn4)c3c2)CC1 (stereo partly shown) ; field requested: Dmax
Result: 50 to 70%

Problem: Query (compound): CC1(Oc2ccc3[nH]nc(-c4cc(N5CCC(C[C@H]6CC[C@H](OC7CCN(c8ccc9c(c8F)CN(C8CCC(=O)NC8=O)C9=O)CC7)CC6)CC5)ncn4)c3c2)CC1 (stereo partly shown) ; field requested: Dmax
Result: 50 to 70%

Problem: Query (compound): CC1(Oc2ccc3[nH]nc(-c4cc(N5CCN(C[C@H]6CN(CCC7CCN(c8ccc9c(c8F)CN(C8CCC(=O)NC8=O)C9=O)CC7)CCO6)CC5)ncn4)c3c2)CC1 (stereo partly shown) ; field requested: Dmax
Result: 50 to 70%

Problem: Query (compound): CC1(Oc2ccc3[nH]nc(-c4cc(N5CCO[C@H](CN6CCN(CC7CCN(c8ccc9c(c8F)CN(C8CCC(=O)NC8=O)C9=O)CC7)CC6)C5)ncn4)c3c2)CC1 (stereo partly shown) ; field requested: Dmax
Result: 50 to 70%

Problem: Query (compound): CC1(Oc2ccc3[nH]nc(-c4cc(N5CCC(O[C@@H]6CCN(CC7CCN(c8ccc9c(c8F)CN(C8CCC(=O)NC8=O)C9=O)CC7)C(C)(C)C6)CC5)ncn4)c3c2)CC1 (stereo partly shown) ; field requested: Dmax
Result: 50 to 70%

Problem: Query (compound): CC1(Oc2ccc3[nH]nc(-c4cc(N5CCC(O[C@H]6CC[C@H](CC7CCN(c8ccc9c(c8F)CN(C8CCC(=O)NC8=O)C9=O)CC7)CC6)CC5)ncn4)c3c2)CC1 (stereo partly shown) ; field requested: Dmax
Result: ≥ 70%
